- TEST PROTOCOL: Phase I study CXR1002-001: plasma pharmacokinetics (LC-MS/MS)
- Assay type: in vivo, human
- CONDITION DETAILS: human, plasma, oral, 200 mg, Patient 008 Dose 200 mg; 360 hr (Day 16); read-out: Concentration
MEASURED METRIC: concentration at 360 h

The reported concentration at 360 h of the compound O=C(O)C(F)(F)C(F)(F)C(F)(F)C(F)(F)C(F)(F)C(F)(F)C(F)(F)F was 211 µM

====

- TEST PROTOCOL: Phase I study CXR1002-001: plasma pharmacokinetics (LC-MS/MS)
- Type: in vivo, human
- CONDITION DETAILS: human, plasma, oral, 200 mg, Patient 008 Dose 200 mg; 2 hr; read-out: Concentration
MEASURED METRIC: concentration at 2 hr (µM)
Give the value, in units of µM, as a plain number.

concentration at 2 hr measured on O=C(O)C(F)(F)C(F)(F)C(F)(F)C(F)(F)C(F)(F)C(F)(F)C(F)(F)F [CXR1002] = 114

====

- TEST PROTOCOL: Phase I study CXR1002-001: plasma pharmacokinetics (LC-MS/MS)
- Type: in vivo, human
- CONDITION DETAILS: human, plasma, po, 1200 mg, Patient 038, 1200 mg weekly oral dose, Time 171 hr; read-out: Concentration (plasma level)
- From the text: PK samples, PD (fasting) samples, blood glucose, and blood triglyceride samples, were taken over a 6-week period. Dose limiting toxicity (DLT) will be based on the toxicity assessments over the first 3-week period of the repeat dosing schedule. […]
MEASURED METRIC: concentration at 171 h (µM)
Numbers only here, please. The scale is µM.

// sample O=C(O)C(F)(F)C(F)(F)C(F)(F)C(F)(F)C(F)(F)C(F)(F)C(F)(F)F [CXR1002] , its concentration at 171 h was 481

====

- TEST PROTOCOL: Phase I study CXR1002-001: plasma pharmacokinetics (LC-MS/MS)
- Assay type: in vivo, human
- CONDITION DETAILS: human, plasma, oral, 750 mg, Patient 028, 750 mg, person, plasma, 504 hr (Day 22); read-out: Concentration
MEASURED METRIC: concentration at 504 h (µM)
Field: numeric (µM). Do not append units.

get_value(item= O=C(O)C(F)(F)C(F)(F)C(F)(F)C(F)(F)C(F)(F)C(F)(F)C(F)(F)F [CXR1002] , readout=concentration at 504 h) returns 467

====

- TEST PROTOCOL: Phase I study CXR1002-001: plasma pharmacokinetics (LC-MS/MS)
- Type: in vivo, human
- CONDITION DETAILS: human, plasma, po, 1200 mg, Patient 036, 1200 mg weekly oral dose, Time 172 hr; read-out: Concentration (plasma level)
MEASURED METRIC: concentration at 172 h (µM)
Form entry: value (µM) — number only.

Noted for O=C(O)C(F)(F)C(F)(F)C(F)(F)C(F)(F)C(F)(F)C(F)(F)C(F)(F)F : its concentration at 172 h reads 665

====

- TEST PROTOCOL: Phase I study CXR1002-001: plasma pharmacokinetics (LC-MS/MS)
- Type: in vivo, human
- CONDITION DETAILS: human, plasma, oral, 1200 mg, Patient 033, 1200 mg, person, plasma, 338 hr; read-out: Concentration
MEASURED METRIC: concentration at 338 h (µM)
Just the number in µM, nothing appended.

// sample O=C(O)C(F)(F)C(F)(F)C(F)(F)C(F)(F)C(F)(F)C(F)(F)C(F)(F)F , its concentration at 338 h was 926
